Test system: Proteus mirabilis
EXPERIMENT_NOTES: Antimicrobial activity against Non-ESBL Proteus mirabilis by broth microdilution method
Assay type: functional
QUANTITY: MIC50 (µg/mL)
Response body: numeric value in µg/mL, unit text excluded.

>>> value_observed("C[C@@H](O)[C@H]1C(=O)N2C(C(=O)O)=C(S[C@@H]3CN[C@H](C(=O)N(C)C)C3)[C@H](C)[C@H]12 [MEROPENEM]")
0.12

Item: CO/N=C(\C(=O)N[C@@H]1C(=O)N2C(C(=O)[O-])=C(C[N+]3(C)CCCC3)CS[C@H]12)c1csc(N)n1 | MIC50: 0.03

Item: C[C@@H](O)[C@H]1C(=O)N2C(C(=O)O)=C(S[C@@H]3CN[C@H](CNS(N)(=O)=O)C3)[C@H](C)[C@H]12 [DORIPENEM] | MIC50: 0.12

Item: C[C@@H](O)[C@H]1C(=O)N2C(C(=O)O)=C(SCCNC=N)C[C@H]12 [IMIPENEM ANHYDROUS] | MIC50: 2

----------
System: Enterobacteriaceae
EXPERIMENT_NOTES: Antimicrobial activity against Ceftazidime non-susceptible Enterobacteriaceae assessed as intermediate isolate by broth microdilution method
Type: functional
QUANTITY: Activity
A bare number is not enough; add the unit after it.

Below, each entry is followed by its recorded Activity result.
>>> value_observed("C[C@@H](O)[C@H]1C(=O)N2C(C(=O)O)=C(SCCNC=N)C[C@H]12 [IMIPENEM ANHYDROUS]")
"1.7%"
>>> value_observed("C[C@@H](O)[C@H]1C(=O)N2C(C(=O)O)=C(S[C@@H]3CN[C@H](C(=O)N(C)C)C3)[C@H](C)[C@H]12")
"0.7%"
>>> value_observed("CC(C)(O/N=C(\\C(=O)N[C@@H]1C(=O)N2C(C(=O)[O-])=C(C[n+]3ccccc3)CS[C@H]12)c1csc(N)n1)C(=O)O")
"7.6%"
>>> value_observed("CO/N=C(\\C(=O)N[C@@H]1C(=O)N2C(C(=O)O)=C(CSc3nc(=O)c(O)nn3C)CS[C@H]12)c1csc(N)n1")
"26.9%"

Read the next record carefully.
Response field Activity (Enterobacteriaceae) for item CO/N=C(\C(=O)N[C@@H]1C(=O)N2C(C(=O)[O-])=C(C[N+]3(C)CCCC3)CS[C@H]12)c1csc(N)n1 : 5.6%

----------
Consider the following compounds and their measured Activity readings.
Tested on: Enterobacteriaceae
EXPERIMENT_NOTES: Antimicrobial activity against ceftazidime-susceptible Enterobacteriaceae assessed as intermediate isolate by broth microdilution method
Type: functional
Response body: numeric value in %, unit text excluded.

Below, each entry is followed by its recorded Activity result.
>>> value_observed("CO/N=C(\\C(=O)N[C@@H]1C(=O)N2C(C(=O)[O-])=C(C[N+]3(C)CCCC3)CS[C@H]12)c1csc(N)n1")
0
>>> value_observed("C[C@@H](O)[C@H]1C(=O)N2C(C(=O)O)=C(S[C@@H]3CN[C@H](C(=O)N(C)C)C3)[C@H](C)[C@H]12")
0
>>> value_observed("CC(C)(O/N=C(\\C(=O)N[C@@H]1C(=O)N2C(C(=O)[O-])=C(C[n+]3ccccc3)CS[C@H]12)c1csc(N)n1)C(=O)O")
0

Item: C[C@@H](O)[C@H]1C(=O)N2C(C(=O)O)=C(SCCNC=N)C[C@H]12 [IMIPENEM ANHYDROUS] | Activity: 0.3

Item: CO/N=C(\C(=O)N[C@@H]1C(=O)N2C(C(=O)O)=C(CSc3nc(=O)c(O)nn3C)CS[C@H]12)c1csc(N)n1 | Activity: 0.4

Values were extracted from ChEMBL document CHEMBL1275550.
